# system: human GPRC5D (human, UniProt Q9NZD1 1-345)
# Sequence (Q9NZD1 whole entry): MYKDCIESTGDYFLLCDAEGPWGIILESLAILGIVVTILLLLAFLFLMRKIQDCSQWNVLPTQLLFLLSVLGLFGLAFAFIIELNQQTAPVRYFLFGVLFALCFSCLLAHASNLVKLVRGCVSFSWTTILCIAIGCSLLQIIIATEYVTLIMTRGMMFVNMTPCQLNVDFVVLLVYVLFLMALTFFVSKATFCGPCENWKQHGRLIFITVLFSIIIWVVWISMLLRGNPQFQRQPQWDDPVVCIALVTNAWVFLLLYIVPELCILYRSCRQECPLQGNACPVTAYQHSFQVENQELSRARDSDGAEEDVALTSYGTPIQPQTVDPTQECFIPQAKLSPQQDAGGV
# assay remarks: cell-based or functional assay
outcome measure: CAR-J2 EC50 (µg/mL)
One number for each entry, in µg/mL.

[ask] Given P1AE5707 (antibody, V domains shown) VH: EVQLLESGGGLVQPGGSLRLSCAASGFTFSKYAMAWVRQAPGKGLEWVASISTGGVNTYYRDSVKARFTISRDNSKNTLYLQMNSLRAEDTAVYYCATHTGDYFDYWGQGTMVTVSS VL: DIVMTQSPDSLAVSLGERATINCRASQSVSISGINLMNWYQQKPGQQPKLLIYHASILASGVPDRFSGSGSGTDFTLTISSLQAEDVAVYYCQQTRESPLTFGQGTRLEIK , respond with its CAR-J2 EC50.
[reply] 0.0424
